Experimental Target: Estrogen Receptor (ERα) in MCF-7 human ductal carcinoma breast cell line (Homo sapiens)
Construct: endogenous in cells; host or cells: MCF-7
Sequence (P03372 whole entry): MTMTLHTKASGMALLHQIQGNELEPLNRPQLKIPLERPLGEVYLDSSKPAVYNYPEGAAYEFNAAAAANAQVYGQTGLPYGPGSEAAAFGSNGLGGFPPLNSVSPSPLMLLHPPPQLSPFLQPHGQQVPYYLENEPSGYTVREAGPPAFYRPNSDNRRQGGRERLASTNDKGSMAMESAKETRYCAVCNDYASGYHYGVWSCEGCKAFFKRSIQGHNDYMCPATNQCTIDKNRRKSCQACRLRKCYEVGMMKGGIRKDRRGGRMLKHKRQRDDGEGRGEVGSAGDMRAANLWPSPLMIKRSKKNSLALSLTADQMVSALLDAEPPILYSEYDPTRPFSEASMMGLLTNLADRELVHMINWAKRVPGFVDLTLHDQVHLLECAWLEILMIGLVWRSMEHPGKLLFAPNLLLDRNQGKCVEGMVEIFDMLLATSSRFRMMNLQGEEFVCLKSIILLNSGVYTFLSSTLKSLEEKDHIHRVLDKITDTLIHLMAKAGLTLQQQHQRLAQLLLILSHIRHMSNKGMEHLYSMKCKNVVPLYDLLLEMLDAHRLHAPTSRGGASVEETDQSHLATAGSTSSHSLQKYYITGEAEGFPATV
Test: MCF-7 ER degradation assay (cell based immuno-fluorescence)
Protocol Conditions: MCF-7 cells, 18-22 hours incubation, 50% reduction of ERα expression; single experiment or average of two or more; read-out: MCF-7 ER degradation IC50
Measure Name: DC50 (nM)
// return numeric value only (unit: nM, not printed)

Cc1ncsc1-c1ccc(CNC(=O)[C@@H]2C[C@@H](O)CN2C(=O)[C@@H](NC(=O)COCCOCCOCCOc2cc(F)c([C@@H]3c4[nH]c5ccccc5c4C[C@@H](C)N3C[C@H](C)C(=O)O)c(F)c2)C(C)(C)C)cc1    174
Cc1ncsc1-c1ccc(CNC(=O)[C@@H]2C[C@@H](O)CN2C(=O)[C@@H](NC(=O)COCc2ccc(OCCOc3cc(F)c([C@@H]4c5[nH]c6ccccc6c5C[C@@H](C)N4CC(C)(C)F)c(F)c3)cc2)C(C)(C)C)cc1    2.1
Cc1ncsc1-c1ccc(CNC(=O)[C@@H]2C[C@@H](O)CN2C(=O)[C@@H](NC(=O)COCc2ccc(COc3cc(F)c([C@@H]4c5[nH]c6ccccc6c5C[C@@H](C)N4CC(C)(C)F)c(F)c3)cn2)C(C)(C)C)cc1    0.6

Please examine the following record next.
Qu. I am curious: what DC50 value has been reported for `Cc1ncsc1-c1ccc(CNC(=O)[C@@H]2C[C@@H](O)CN2C(=O)[C@@H](NC(=O)COCCNC(=O)/C=C/c2cc(F)c([C@@H]3c4[nH]c5ccccc5c4C[C@@H](C)N3CC(C)(C)F)c(F)c2)C(C)(C)C)cc1` ?
Ans. 0.6

---

IC50: recorded values
Experimental Target: recombinant human Estrogen Receptor alpha ligand binding domain, residues 307-554 (ER alpha-LBD (GST)) (Homo sapiens)
Sequence (P03372 307-554): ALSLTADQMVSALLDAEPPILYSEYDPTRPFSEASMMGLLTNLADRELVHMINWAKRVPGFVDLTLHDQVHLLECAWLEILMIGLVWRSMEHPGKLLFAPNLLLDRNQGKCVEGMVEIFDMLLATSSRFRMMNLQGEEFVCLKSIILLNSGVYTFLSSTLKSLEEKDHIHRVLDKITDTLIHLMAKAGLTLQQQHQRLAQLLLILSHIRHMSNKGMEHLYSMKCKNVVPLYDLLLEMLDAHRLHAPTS
Test: ERα binding assay (LanthaScreen TR-FRET competition)
Protocol Conditions: TR-FRET competition with Fluormone ES2 tracer, 4 hours at room temperature; single experiment or average of two or more
Structures can show the parent of a compound that is named as a salt.
// return numeric value only (unit: nM, not printed)

Cc1ncsc1-c1ccc(CNC(=O)[C@@H]2C[C@@H](O)CN2C(=O)[C@@H](NC(=O)CCCCN(C)CCN(C)CCOc2cc(F)c([C@@H]3c4[nH]c5ccccc5c4C[C@@H](C)N3CC(C)(C)F)c(F)c2)C(C)(C)C)cc1 [Example 108]    0.6
Cc1ncsc1-c1ccc(CNC(=O)[C@@H]2C[C@@H](O)CN2C(=O)[C@@H](NC(=O)CN2CCC3(CCN(CCOc4cc(F)c([C@@H]5c6[nH]c7ccccc7c6C[C@@H](C)N5CC(C)(C)F)c(F)c4)CC3)CC2)C(C)(C)C)cc1 [Example 43]    2.3
Cc1ncsc1-c1ccc(CNC(=O)[C@@H]2C[C@@H](O)CN2C(=O)[C@@H](NC(=O)COCCCCCCOc2ccc([C@@H]3c4[nH]c5ccccc5c4C[C@@H](C)N3CC(F)F)nc2)C(C)(C)C)cc1 [Example 8]    6.8
Cc1ncsc1-c1ccc([C@H](C)NC(=O)[C@@H]2C[C@@H](O)CN2C(=O)[C@@H](NC(=O)COCCCOCCCCCOc2cc(F)c([C@@H]3c4[nH]c5ccccc5c4C[C@@H](C)N3CC(C)(C)F)c(F)c2)C(C)(C)C)cc1 [Example 137]    0.8

Qu. I am curious: what IC50 value has been reported for Cc1ncsc1-c1ccc(CNC(=O)[C@@H]2C[C@@H](O)CN2C(=O)[C@@H](NC(=O)COCCCCCOc2cc(F)c([C@@H]3c4[nH]c5ccccc5c4C[C@@H](C)N3CC3(F)CC3)c(F)c2)C(C)(C)C)cc1 [Example 79] ?
Ans. 0.9

Qu. Then what about the compound CC[C@H](C)[C@H](N)C(=O)O[C@@H]1C[C@@H](C(=O)NCc2ccc(-c3scnc3C)cc2)N(C(=O)[C@@H](NC(=O)COCCOCCOCCOc2cc(F)c([C@@H]3c4[nH]c5ccccc5c4C[C@@H](C)N3CC(C)(C)F)c(F)c2)C(C)(C)C)C1 [Example 99, Formate] ?
Ans. 1.2

Qu. Then what about the compound Cc1ncsc1-c1ccc(CNC(=O)[C@@H]2C[C@@H](O)CN2C(=O)[C@@H](NC(=O)COCc2ccc(C(=O)Nc3cc(F)c([C@@H]4c5[nH]c6ccccc6c5C[C@@H](C)N4CC(C)(C)F)c(F)c3)nc2)C(C)(C)C)cc1 [Example 144] ?
Ans. 1.3

Qu. Then what about the compound CC(=O)O[C@@H]1C[C@@H](C(=O)NCc2ccc(-c3scnc3C)cc2)N(C(=O)[C@@H](NC(=O)COCCCCCCOc2cc(F)c([C@@H]3c4[nH]c5ccccc5c4C[C@@H](C)N3CC(C)(C)F)c(F)c2)C(C)(C)C)C1 [Example 52] ?
Ans. 1.1
